Where these numbers come from: patent US6987114B1

Tested on: mock-infected MT-4 cells
Test: Cytotoxicity based on viability of mock-infected host cells (MTT method)
Assay type: cell-based
Settings: mock-infected MT-4 cells, MTT method, 4 or 5 days at 37° C.

>  <Structure as smiles>
COc1cc(Cn2c(Oc3cc(C)cc(C)c3)c(C(C)C)c(=O)[nH]c2=O)cc(OC)c1

>  <Comparison sign>
>

>  <CD50 (µg/mL)>
100.00

$$$$
>  <Structure as smiles>
Cc1cc(C)cc(Oc2c(C(C)C)c(=O)[nH]c(=O)n2Cc2ccccn2)c1

>  <Comparison sign>
>

>  <CD50 (µg/mL)>
100.00

$$$$
>  <Structure as smiles>
CCc1c(C(=O)c2cc(C)cc(C)c2)n(Cc2cccc(C#N)c2)c(=O)[nH]c1=O

>  <Comparison sign>
=

>  <CD50 (µg/mL)>
2.53

$$$$
>  <Structure as smiles>
CCc1c(Oc2cc(C)cc(C)c2)n(Cc2ccc3ccccc3n2)c(=O)[nH]c1=O

>  <Comparison sign>
=

>  <CD50 (µg/mL)>
11.70

$$$$
>  <Structure as smiles>
COc1cc(Cn2c(C(=O)c3cc(C)cc(C)c3)c(C(C)C)c(=O)[nH]c2=O)cc(OC)c1

>  <Comparison sign>
=

>  <CD50 (µg/mL)>
12.09

$$$$
>  <Structure as smiles>
Cc1cc(C)cc(Oc2c(C(C)C)c(=O)[nH]c(=O)n2CC2CCC2)c1

>  <Comparison sign>
=

>  <CD50 (µg/mL)>
7.8

$$$$
>  <Structure as smiles>
CCc1c(Oc2cc(C)cc(C)c2)n(Cc2cc(Cl)cc(Cl)c2)c(=O)[nH]c1=O

>  <Comparison sign>
>

>  <CD50 (µg/mL)>
100.00

$$$$
>  <Structure as smiles>
Cc1cc(C)cc(Sc2c(C(C)C)c(=O)[nH]c(=O)n2CC2CCC2)c1

>  <Comparison sign>
=

>  <CD50 (µg/mL)>
5.9

$$$$
>  <Structure as smiles>
CCc1c(Oc2cc(C)cc(C)c2)n(Cc2cccc(Cl)n2)c(=O)[nH]c1=O

>  <Comparison sign>
=

>  <CD50 (µg/mL)>
79.14

$$$$
>  <Structure as smiles>
CCc1c(Oc2cc(C)cc(C)c2)n(Cc2cccnc2)c(=O)[nH]c1=O

>  <Comparison sign>
=

>  <CD50 (µg/mL)>
40.20

$$$$
>  <Structure as smiles>
COC(=O)c1ccoc1Cn1c(Sc2cc(C)cc(C)c2)c(C(C)C)c(=O)[nH]c1=O

>  <Comparison sign>
=

>  <CD50 (µg/mL)>
9.61

$$$$
>  <Structure as smiles>
Cc1cc(C)cc(C(=O)c2c(C(C)C)c(=O)[nH]c(=O)n2CC2CC2)c1

>  <Comparison sign>
=

>  <CD50 (µg/mL)>
8.5

$$$$
>  <Structure as smiles>
Cc1cc(C)cc(Sc2c(C(C)C)c(=O)[nH]c(=O)n2Cc2cc(Cl)cc(Cl)c2)c1

>  <Comparison sign>
=

>  <CD50 (µg/mL)>
46.83

$$$$
>  <Structure as smiles>
CCc1c(C(=O)c2cc(C)cc(C)c2)n(Cc2cccc(Cl)n2)c(=O)[nH]c1=O

>  <Comparison sign>
=

>  <CD50 (µg/mL)>
9.02

$$$$
>  <Structure as smiles>
Cc1cc(C)cc(Sc2c(C(C)C)c(=O)[nH]c(=O)n2Cc2cc(F)cc(F)c2)c1

>  <Comparison sign>
=

>  <CD50 (µg/mL)>
10.50

$$$$
>  <Structure as smiles>
CCc1c(Oc2cc(C)cc(C)c2)n(Cc2cccc(Br)n2)c(=O)[nH]c1=O

>  <Comparison sign>
=

>  <CD50 (µg/mL)>
9.46

$$$$
>  <Structure as smiles>
Cc1cc(C)cc(C(=O)c2c(C(C)C)c(=O)[nH]c(=O)n2Cc2cc(Br)cc(Br)c2)c1

>  <Comparison sign>
=

>  <CD50 (µg/mL)>
8.90

$$$$
>  <Structure as smiles>
CCc1c(Oc2cc(C)cc(C)c2)n(Cc2occc2C(=O)OC)c(=O)[nH]c1=O

>  <Comparison sign>
=

>  <CD50 (µg/mL)>
12.22

$$$$
>  <Structure as smiles>
Cc1cc(C)cc(Sc2c(C(C)C)c(=O)[nH]c(=O)n2Cc2ccc3ccccc3n2)c1

>  <Comparison sign>
=

>  <CD50 (µg/mL)>
9.60

$$$$
>  <Structure as smiles>
CCc1c(Oc2cc(C)cc(C)c2)n(CC2CC2)c(=O)[nH]c1=O

>  <Comparison sign>
>

>  <CD50 (µg/mL)>
100.00

$$$$
>  <Structure as smiles>
Cc1cc(C)cc(Sc2c(C(C)C)c(=O)[nH]c(=O)n2Cc2ccc3c(c2)C(=O)c2ccccc2C3=O)c1

>  <Comparison sign>
>

>  <CD50 (µg/mL)>
100.00

$$$$
>  <Structure as smiles>
Cc1cc(C)cc(C(=O)c2c(C(C)C)c(=O)[nH]c(=O)n2Cc2ccc(OC(F)(F)F)cc2)c1

>  <Comparison sign>
=

>  <CD50 (µg/mL)>
7.88

$$$$
>  <Structure as smiles>
CCc1c(C(=O)c2cc(C)cc(C)c2)n(CC2CC2)c(=O)[nH]c1=O

>  <Comparison sign>
=

>  <CD50 (µg/mL)>
39.4

$$$$
>  <Structure as smiles>
COC(=O)c1ccoc1Cn1c(Oc2cc(C)cc(C)c2)c(C(C)C)c(=O)[nH]c1=O

>  <Comparison sign>
=

>  <CD50 (µg/mL)>
10.11

$$$$
>  <Structure as smiles>
CCC(=O)Cn1c(C(=O)c2cc(C)cc(C)c2)c(CC)c(=O)[nH]c1=O

>  <Comparison sign>
=

>  <CD50 (µg/mL)>
9.31

$$$$
>  <Structure as smiles>
CC(=O)Cn1c(Oc2cc(C)cc(C)c2)c(C(C)C)c(=O)[nH]c1=O

>  <Comparison sign>
>

>  <CD50 (µg/mL)>
100.00

$$$$
>  <Structure as smiles>
CCc1c(Oc2cc(C)cc(C)c2)n(Cc2cc(F)cc(F)c2)c(=O)[nH]c1=O

>  <Comparison sign>
=

>  <CD50 (µg/mL)>
14.30

$$$$
>  <Structure as smiles>
CCc1c(Oc2cc(C)cc(C)c2)n(Cc2cccc(OC)c2)c(=O)[nH]c1=O

>  <Comparison sign>
=

>  <CD50 (µg/mL)>
10.68

$$$$
>  <Structure as smiles>
CCc1c(Sc2cc(C)cc(C)c2)n(Cc2cc(C(F)(F)F)cc(C(F)(F)F)c2)c(=O)[nH]c1=O

>  <Comparison sign>
>

>  <CD50 (µg/mL)>
100.00

$$$$
>  <Structure as smiles>
CCc1c(C(=O)c2cc(C)cc(C)c2)n(CC2CCCCC2)c(=O)[nH]c1=O

>  <Comparison sign>
=

>  <CD50 (µg/mL)>
7.10

$$$$
>  <Structure as smiles>
CCc1c(Oc2cc(C)cc(C)c2)n(Cc2ccc3c(c2)C(=O)c2ccccc2C3=O)c(=O)[nH]c1=O

>  <Comparison sign>
=

>  <CD50 (µg/mL)>
5.30

$$$$
>  <Structure as smiles>
Cc1cc(C)cc(Sc2c(C(C)C)c(=O)[nH]c(=O)n2Cc2cccnc2)c1

>  <Comparison sign>
=

>  <CD50 (µg/mL)>
10.09

$$$$
>  <Structure as smiles>
CCc1c(Oc2cc(C)cc(C)c2)n(Cc2cccc(C#N)c2)c(=O)[nH]c1=O

>  <Comparison sign>
>

>  <CD50 (µg/mL)>
100.00

$$$$
